protocol-text: Probenecid inhibition studies (invasive pharmacokinetics after probenecid)
Assay type: in vivo, Sprague-Dawley rats
cond: male, Sprague-Dawley, iv, with probenecid 70 mg/kg, 10 min prior to the test compound; rat plasma, 70 mg/kg Probenecid 10 min prior to test compound; values in brackets; mean ± SEM (n); read-out: Pharmacokinetics Clearance, probenecid challenge experiment
metric-name: clearance (mL/min)
Provide the reading as a plain figure in mL/min.

Look up clearance for this compound: COCCOCCOCCOCCOCCOCCOCCOCCOCCOCCOCCOCCCNc1nc(C(=O)NCCOCCOCCOCCOCCOCCOCCOCCOCCOCCOCCOCCOC)c(NCCCOCCOCCOCCOCCOCCOCCOCCOCCOCCOCCOCCOC)nc1C(=O)NCCOCCOCCOCCOCCOCCOCCOCCOCCOCCOCCOCCOC [Compound 1] 3.3
